# Test system: SW-620
# measurementProtocol: NCI tumour cell line growth inhibition, 48 h
Calls of active or inactive are those of the source. No stated cut-off is given here; in the data, active = GI50 up to about 1.1 µM and inactive = higher. Where a SMILES comes first, the peptide text is derived from it. [ ]: non-standard residue; d: D form. The star is where a group is joined. ξ: configuration not given here. NMeF = CN[CH](Cc1ccccc1)C(=O)O; ξNMe2Val = CC(C)C(C(=O)*)N(C)C; NMeV = CN[CH](C(=O)O)C(C)C; OtBu = CC(C)(C)O*
Outcomes: active, inactive

{"columns": ["compound", "groupLabel"],
 "data": [
  ["O=C(Nc1c(O)[nH]c(=S)[nH]c1=O)c1ccc2ccccc2n1", "inactive"],
  ["COc1ccc2[nH]c3c(c2c1)CC(=S)N1CCCC(CC3=O)C1 (stereo unspecified)", "inactive"],
  ["O=C(O)c1ccccc1/C=N\\N=C1NCCN1", "inactive"],
  ["C[C@]12CC(C=O)C(=O)C(O)=C1CC[C@@H]1C2CC[C@@]2(C)C1CC[C@]2(C)O (stereo partly specified)", "inactive"],
  ["COc1ccc2c3c([nH]c2c1[N+](=O)[O-])C(C)N(Cc1ccc([N+](=O)[O-])cc1)CC3 (stereo unspecified)", "inactive"],
  ["CC(C)C(C(=O)N(C)C(Cc1ccccc1)C(=O)N(C)C(C(=O)N(C)C(C(=O)N1CCCC1C(=O)OC(C)(C)C)C(C)C)C(C)C)N(C)C (stereo unspecified) (ξNMe2Val-[NMeF][NMeV][NMeV]P-OtBu; configuration not given here)", "inactive"],
  ["O=c1[nH]c(=O)n(C2OC3COC2C3O)cc1F (stereo unspecified)", "inactive"],
  ["CC(=O)c1cc2c(s1)C(=O)c1ccccc1C2=O", "active"],
  ["CCCCn1c2c(n(CCCC)c1=[Se])-c1c(n(CCCC)c(=[Se])n1CCCC)S[Se][Se]S2", "inactive"],
  ["CCN(CC)C(=O)Cc1[nH][nH]c(=O)c1C(=O)N(CC)CC", "inactive"],
  ["C=Cc1c(C)c2cc3nc(c4c5[nH]c(cc6nc(cc1[nH]2)C(C)=C6CC)c(C)c5C(=O)C4C(=O)OC)C(CCC(=O)OC)C3C (stereo unspecified)", "inactive"],
  ["Clc1ccc(Cc2nc3cc(CCN4CCN(c5ccccc5)CC4)ccc3[nH]2)cc1", "inactive"],
  ["Cc1ccccc1NC(=O)Cc1csc(N/N=C2\\C(=O)Nc3ccccc32)n1", "active"],
  ["Cc1cc2c(=O)cc(-c3ccc(Cl)cc3Cl)oc2c(C(=O)O)c1C", "inactive"],
  ["COc1ccc2c(c1)c1c3c(ccc4ncn2c43)N(CCN(C)C)CCN=1", "active"],
  ["CN(C)CCNC(=O)c1cccc2nc3c4ccccc4c4ccccc4c3nc12", "inactive"]
]}
